measured-target: glucose-6-phosphate dehydrogenase-6-phosphogluconolactonase (Plasmodium falciparum 3D7)
assay-info: inhibition of P. falciparum G6PD activity – biochemical, kinetic NADPH detection, orthogonal assay, SAR follow-up (AID 588593)
test-settings: recombinant PfG6PD-6PGL
Calls of active or inactive are those of the source. No rule for the calls is given here.
Select the correct class. Options are Y = active, N = inactive and nothing else.

Completed entries (count: 5):
# molecule, cat
rows = [
    ("CCN1CCCC1CNC(=O)c1ccc2c(c1)NC(=O)/C(=C/c1ccccc1C)S2 (stereo unspecified)", "Y"),
    ("CCN1CCC[C@@H]1CNC(=O)c1ccc2c(c1)NC(=O)/C(=C/c1ccccc1F)S2", "Y"),
    ("O=C(NCCN1CCCCC1)c1ccc2c(c1)NC(=O)c1ccccc1O2", "Y"),
    ("O=C(Nc1nnc(S(=O)(=O)N2CCCCCC2)s1)c1ccccc1F", "Y"),
    ("Cc1cccc(C(=O)Nc2nnc(S(=O)(=O)N3CCOCC3)s2)c1", "Y"),
]

Input line: What outcome does the record of this test show for CCN1CCCC1CNC(=O)c1ccc2c(c1)NC(=O)CO2 (stereo unspecified) ?
Output line: Y

Input line: What outcome does the record of this test show for CN1CCN(C(=O)c2ccc3c(c2)NC(=O)/C(=C/c2ccccc2Cl)S3)CC1 ?
Output line: N

Input line: What outcome does the record of this test show for CCN(CC)CCNC(=O)c1ccc2c(c1)N(Cc1cc(C)ccc1C)C(=O)c1ccccc1S2 ?
Output line: N

Input line: What outcome does the record of this test show for COc1ccc(/C=C2/Sc3ccc(C(=O)NCCN(C)C)cc3NC2=O)cc1 ?
Output line: N

Input line: What outcome does the record of this test show for O=C1Nc2cc(C(=O)NCCN3CCCCCC3)ccc2S/C1=C/c1ccccc1Cl ?
Output line: N

Input line: What outcome does the record of this test show for O=C(Nc1nnc(S(=O)(=O)N2CCCCCC2)s1)c1cccc(Br)c1 ?
Output line: Y

###

Catalogue of IC50 values
measured-target: glucose-6-phosphate dehydrogenase-6-phosphogluconolactonase (Plasmodium falciparum 3D7)
assay-info: inhibition of P. falciparum G6PD activity – biochemical, kinetic NADPH detection, orthogonal assay, SAR follow-up (AID 588593)
test-settings: recombinant PfG6PD-6PGL
Calls of active or inactive are those of the source. How the calls were made is not given here.

# compound, IC50
records = [
    ("CCN1CCCC1CNC(=O)c1ccc2c(c1)NC(=O)CS2 (stereo unspecified)", "> 80 µM (inactive)"),
    ("CN(C)CCNC(=O)c1ccc2c(c1)NC(=O)c1ccccc1O2", "> 80 µM (inactive)"),
    ("Cc1cccc(C(=O)Nc2nnc(S(=O)(=O)N3CCCc4ccccc43)s2)c1", "> 80 µM (inactive)"),
    ("CCN1CCCC1CNC(=O)c1ccc2c(c1)N(Cc1ccc(C(F)(F)F)cc1)C(=O)c1ccccc1S2 (stereo unspecified)", "> 80 µM (inactive)"),
    ("O=C1COc2ccc(C(=O)NCCN3CCCCC3)cc2N1", "77 µM"),
]

Input line: Return reported IC50; argument: Cc1ccc(C(=O)Nc2nnc(S(=O)(=O)N3CCCCCC3)s2)cc1
Output line: 10.7 µM

Input line: Return reported IC50; argument: CCCN(CCC)CCNC(=O)c1ccc2c(c1)NC(=O)/C(=C/c1ccccc1)S2
Output line: 27.2 µM

Input line: Return reported IC50; argument: Cc1cccc(N2CCN(CCNC(=O)c3ccc4c(c3)NC(=O)c3ccccc3S4)CC2)c1C
Output line: 47.9 µM

###

measured-target: glucose-6-phosphate dehydrogenase-6-phosphogluconolactonase (Plasmodium falciparum 3D7)
assay-info: inhibition of P. falciparum G6PD activity – biochemical, kinetic NADPH detection, orthogonal assay, SAR follow-up (AID 588593)
test-settings: recombinant PfG6PD-6PGL
property-name: IC50

Field: example entries. Status: answers known.
# compound, IC50
rows = [
    ("COc1cccc(/C=C2/Sc3ccc(C(=O)NCCN4CCCCCC4)cc3NC2=O)c1", "58.5 µM"),
    ("Cc1cccc(C(=O)Nc2nnc(S(=O)(=O)N3CCC(C)CC3)s2)c1", "9.09 µM"),
    ("CN(C)CCNC(=O)c1ccc2c(c1)NC(=O)/C(=C\\c1cccc(Cl)c1)S2", "43.6 µM"),
]

Input line: Return reported IC50; argument: O=C(Nc1nnc(S(=O)(=O)N2CCCCCC2)s1)c1ccc(F)cc1
Output line: 43.9 µM

###

measured-target: glucose-6-phosphate dehydrogenase-6-phosphogluconolactonase (Plasmodium falciparum 3D7)
assay-info: inhibition of P. falciparum G6PD activity – biochemical, kinetic NADPH detection, orthogonal assay, SAR follow-up (AID 588593)
test-settings: recombinant PfG6PD-6PGL
property-name: IC50

Field: example entries. Status: answers known.
# compound, val
data = [
    ("CCN(CC)CCNC(=O)c1ccc2c(c1)NC(=O)/C(=C/c1ccccc1)S2", "18.4 µM"),
    ("CN(CCNC(=O)c1ccc2c(c1)NC(=O)c1ccccc1S2)C1CCCCC1", "28.6 µM"),
]

Input line: Return reported IC50; argument: CCN(CC)CCNC(=O)c1ccc2c(c1)NC(=O)/C(=C\c1ccccc1F)S2
Output line: 9.37 µM

Input line: Return reported IC50; argument: CCN1CCCC1CNC(=O)c1ccc2c(c1)NC(=O)/C(=C/c1ccccc1OC)S2 (stereo not given)
Output line: 11.3 µM

###

measured-target: glucose-6-phosphate dehydrogenase-6-phosphogluconolactonase (Plasmodium falciparum 3D7)
assay-info: inhibition of P. falciparum G6PD activity – biochemical, kinetic NADPH detection, orthogonal assay, SAR follow-up (AID 588593)
test-settings: recombinant PfG6PD-6PGL
Active and inactive are the calls of the source. No rule for the calls is given here.
Select the correct class. Options are active, inactive and nothing else.

# compound, measured-target, cat
data = [
    ("COc1ccc(C(=O)Nc2nnc(S(=O)(=O)N3CCCCCC3)s2)cc1OC", "glucose-6-phosphate dehydrogenase-6-phosphogluconolactonase (Plasmodium falciparum 3D7)", "active"),
    ("O=C(Nc1nnc(S(=O)(=O)N2CCCCCC2)s1)c1cccc(Cl)c1", "glucose-6-phosphate dehydrogenase-6-phosphogluconolactonase (Plasmodium falciparum 3D7)", "active"),
    ("O=C(Nc1nnc(S(=O)(=O)N2CCCc3ccccc32)s1)c1cccc(F)c1", "glucose-6-phosphate dehydrogenase-6-phosphogluconolactonase (Plasmodium falciparum 3D7)", "active"),
    ("CCN1CCCC1CNC(=O)c1ccc2c(c1)NC(=O)/C(=C\\c1ccccc1F)S2 (stereo not drawn)", "glucose-6-phosphate dehydrogenase-6-phosphogluconolactonase (Plasmodium falciparum 3D7)", "active"),
    ("O=C1Nc2cc(C(=O)NCCN3CCOCC3)ccc2S/C1=C\\c1ccccc1F", "glucose-6-phosphate dehydrogenase-6-phosphogluconolactonase (Plasmodium falciparum 3D7)", "inactive"),
    ("O=C1Nc2cc(C(=O)NCc3ccccc3)ccc2S/C1=C\\c1ccccc1F", "glucose-6-phosphate dehydrogenase-6-phosphogluconolactonase (Plasmodium falciparum 3D7)", "inactive"),
]

Input line: What outcome does the record of this test show for COc1ccc(C(=O)Nc2nnc(S(=O)(=O)N3CCCCCC3)s2)cc1 ?
Output line: active

Input line: What outcome does the record of this test show for COc1ccc(/C=C2/Sc3ccc(C(=O)NCCN4CCCC4)cc3NC2=O)cc1 ?
Output line: inactive

Input line: What outcome does the record of this test show for CC1Cc2ccccc2N1S(=O)(=O)c1nnc(NC(=O)c2cccc(Br)c2)s1 (stereo not drawn) ?
Output line: inactive

Input line: What outcome does the record of this test show for O=C(Nc1nnc(S(=O)(=O)N2CCCCCC2)s1)c1cccc(F)c1 ?
Output line: active

###

measured-target: glucose-6-phosphate dehydrogenase-6-phosphogluconolactonase (Plasmodium falciparum 3D7)
assay-info: inhibition of P. falciparum G6PD activity – biochemical, kinetic NADPH detection, orthogonal assay, SAR follow-up (AID 588593)
test-settings: recombinant PfG6PD-6PGL
property-name: IC50

Field: example entries. Status: answers known.
# compound, measured-target, IC50
measured = [
    ("O=C(Nc1nnc(S(=O)(=O)N2CCCCCC2)s1)C1CCCCC1", "glucose-6-phosphate dehydrogenase-6-phosphogluconolactonase (Plasmodium falciparum 3D7)", "38.5 µM"),
    ("CC1Cc2ccccc2N1S(=O)(=O)c1nnc(NC(=O)c2cccc(F)c2)s1 (stereo not drawn)", "glucose-6-phosphate dehydrogenase-6-phosphogluconolactonase (Plasmodium falciparum 3D7)", "30.8 µM"),
]

Pending compound:
Input line: Which IC50 is reported with glucose-6-phosphate dehydrogenase-6-phosphogluconolactonase (Plasmodium falciparum 3D7) for this entry: COc1ccccc1C(=O)Nc1nnc(S(=O)(=O)N2CCCCCC2)s1 ?
Output line: 10 µM

###

measured-target: glucose-6-phosphate dehydrogenase-6-phosphogluconolactonase (Plasmodium falciparum 3D7)
assay-info: inhibition of P. falciparum G6PD activity – biochemical, kinetic NADPH detection, orthogonal assay, SAR follow-up (AID 588593)
test-settings: recombinant PfG6PD-6PGL
pIC50: −log10 of the molar value.
property-name: pIC50

Field: example entries. Status: answers known.
# compound, val
measured = [
    ("CCN(CCNC(=O)c1ccc2c(c1)N(CC)C(=O)c1ccccc1S2)c1ccccc1", 4.35),
    ("CCN1CCCC1CNC(=O)c1ccc2c(c1)NC(=O)c1ccccc1O2 (stereo unspecified)", 4.92),
    ("CN1CCCC1CCNC(=O)c1ccc2c(c1)NC(=O)/C(=C/c1ccccc1F)S2 (stereo unspecified)", 4.34),
]

A. CCN1CCCC1CNC(=O)c1ccc2c(c1)NC(=O)/C(=C\c1ccccc1Cl)S2 (stereo unspecified)
B. CCN(CC)CCNC(=O)c1ccc2c(c1)NC(=O)c1ccccc1O2
C. O=C1Nc2cc(C(=O)NCCN3CCCCC3)ccc2S/C1=C\c1ccccc1F
Input line: Ascending by pIC50, please: list the compounds accordingly. Please list each label once, in the requested order.
Output line: B, C, A

Ref: PubChem BioAssay AID588593
